The values you see were collected from the supplement of paper PMC6555819.

Field: PBM binding z-score. Provide a value for each of the sequences that follow.
# Test system: THRa:RXRa (NR concentration 90 nM, RXRa partner concentration 90 nM)
# assay-notes: PBM binding z-score (relative to random genomic background probes); higher = stronger binding; sequences stand for … in GC…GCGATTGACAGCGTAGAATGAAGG
// return a plain number; no unit text

Consider `CCTATTAGTTGACCATAAGGGCATCCGAAGCTCG` . Its measured PBM binding z-score is 1.89

Consider `CAAACTAGGTCAAGTTCAAAGTCGGTTTGTGCCA` . Its measured PBM binding z-score is 3.52

Consider `CAAACTAGGTCACAGAGGTCAAAGTCCGTGCGTA` . Its measured PBM binding z-score is 4.79

Consider `ATCTCTAGGTAAAGATAGTCCAGTGAATGCAAAT` . Its measured PBM binding z-score is 0.341

Consider `GCAGACAGGTGAAACGCAGGTAAATCAGGGTGGC` . Its measured PBM binding z-score is 1.23

Consider `CATACAGGGTCAGCTAGTCCAGAGTAGGGACGGC` . Its measured PBM binding z-score is 2.86

Consider `ACTTACGGGTAAACGAGGTTATAGCACGCGTATA` . Its measured PBM binding z-score is 3.64

Consider `AGTCTAAGTTCATCTAGGTAACGTAAGATATGCT` . Its measured PBM binding z-score is 2.9

Consider `CCTATTAGTTGACCATAAGGGTAACCGAAGCTCG` . Its measured PBM binding z-score is 1.3

Consider `TAGCCTAGGTCATTCAGGGGCCAGTAAAGAAAGC` . Its measured PBM binding z-score is 3.63

Consider `CCAGACAGGTGAAAGCTAACTCAGTCTGGTACGC` . Its measured PBM binding z-score is -0.0859

Consider `CGAACTAGGTCATCCAGGACAGTGCATACATTGA` . Its measured PBM binding z-score is 3.65

====

Field: PBM binding z-score. Provide a value for each of the sequences that follow.
# Test system: PPARg:RXRa 270nM:90nM, anti-RXR (NR concentration 270 nM, RXRa partner concentration 90 nM)
# assay-notes: PBM binding z-score (relative to random genomic background probes); higher = stronger binding; sequences stand for … in GC…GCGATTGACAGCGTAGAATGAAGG
// return a plain number; no unit text

Consider `CCTACTGGGCCATCAGGTCAATGATATCAACGTT` . Its measured PBM binding z-score is 3.37

Consider `CAAACTAGGTCACAGAGGTCAAAATCCGTGCGTA` . Its measured PBM binding z-score is 7.86

Consider `CCTTACGGGTCACTCCAGGATATAGCATCGGAGT` . Its measured PBM binding z-score is 3.49

Consider `CACACAGGGTCAGCTAGGCCAGAGTAGGGACGGC` . Its measured PBM binding z-score is 2.62

Consider `CCTAGCAGGCCAGGGTTACTCAAGCATTTCGCTT` . Its measured PBM binding z-score is 0.539

Consider `CAAGACAGGTGAAAGGTAACTCAGTCTGGTACGC` . Its measured PBM binding z-score is 5.94

Consider `CAAACTAGGTAACGAAAGGTCAAAGTCGAATGAC` . Its measured PBM binding z-score is 6.42

Consider `GATACAGGGTCACGGCCAGAGTACGCGTATTGAT` . Its measured PBM binding z-score is 7.43

Consider `ACTAGCAGGCCGAGGGTCACTCAAGATTAGTCCG` . Its measured PBM binding z-score is 4.99

Consider `CGTCCAAGGTCAAGTTCAGTGAAAGAGACTCGAA` . Its measured PBM binding z-score is 5.92

Consider `ACTATTAGTTGACTCAGGGCAACCGATACGACGC` . Its measured PBM binding z-score is 0.163

Consider `TAGCCTAGGTTAGATCGGGCCAGTATACGCTATA` . Its measured PBM binding z-score is -0.562
